Would you kindly list Ki for each of these molecules?
Target desc: apamin binding sites / apamin receptors (bovine cerebral membrane, calf hippocampus)
Assay: Binding of 125I-apamin to bovine cerebral membrane
Settings: 125I-apamin 30 pM, calf hippocampus membranes
Give bare numbers, in nM.

- Molecule: "CCCc1cc(NCCCCCNc2cc(CCC)nc3ccccc23)c2ccccc2n1 [Example 2]"
  Ki, nM: 13

Consider now this further molecule.
The recorded Ki for CCc1cc(NCCCCCNc2cc(CC)nc3ccccc23)c2ccccc2n1 [Example 1] is 17
